The reported numbers originate from BindingDB's records for doi:10.1021/acschembio.6b00747.

Form: system (Endoplasmin (Homo sapiens, UniProt P14625)), quantity (log10(Kd)), values below.
parameter-measured: log10(Kd) (log10 of the value in µM)

1) NC(=O)c1ccc(-n2cccc2Cc2ccc(F)cc2)cc1NC1CCC(O)CC1 (centres undefined)    0.92
2) NC(=O)c1ccc(-n2cccc2Cc2ccccc2Br)cc1NC1CCC(O)CC1 (centres undefined)    1.11
3) NC(=O)c1ccc(-n2cccc2-c2ccccn2)cc1NC1CCC(O)CC1 (centres undefined)    1.15
4) NC(=O)c1ccc(-n2cccc2-c2ccc(Cl)cc2)cc1NC1CCC(O)CC1 (centres undefined)    1.03
5) Cc1ccccc1-c1cccn1-c1ccc(C(N)=O)c(NC2CCC(O)CC2)c1 (centres undefined)    1.00
6) NC(=O)c1ccc(-n2cccc2Cc2ccccc2)cc1NC1CCC(O)CC1 (centres undefined)    0.05
